Target: Microsomal triglyceride transfer protein (MTP) from bovine liver (Bos taurus, UniProt P55156)
Construct: from tissue; host or cells: bovine liver
Sequence (P55156 12-887): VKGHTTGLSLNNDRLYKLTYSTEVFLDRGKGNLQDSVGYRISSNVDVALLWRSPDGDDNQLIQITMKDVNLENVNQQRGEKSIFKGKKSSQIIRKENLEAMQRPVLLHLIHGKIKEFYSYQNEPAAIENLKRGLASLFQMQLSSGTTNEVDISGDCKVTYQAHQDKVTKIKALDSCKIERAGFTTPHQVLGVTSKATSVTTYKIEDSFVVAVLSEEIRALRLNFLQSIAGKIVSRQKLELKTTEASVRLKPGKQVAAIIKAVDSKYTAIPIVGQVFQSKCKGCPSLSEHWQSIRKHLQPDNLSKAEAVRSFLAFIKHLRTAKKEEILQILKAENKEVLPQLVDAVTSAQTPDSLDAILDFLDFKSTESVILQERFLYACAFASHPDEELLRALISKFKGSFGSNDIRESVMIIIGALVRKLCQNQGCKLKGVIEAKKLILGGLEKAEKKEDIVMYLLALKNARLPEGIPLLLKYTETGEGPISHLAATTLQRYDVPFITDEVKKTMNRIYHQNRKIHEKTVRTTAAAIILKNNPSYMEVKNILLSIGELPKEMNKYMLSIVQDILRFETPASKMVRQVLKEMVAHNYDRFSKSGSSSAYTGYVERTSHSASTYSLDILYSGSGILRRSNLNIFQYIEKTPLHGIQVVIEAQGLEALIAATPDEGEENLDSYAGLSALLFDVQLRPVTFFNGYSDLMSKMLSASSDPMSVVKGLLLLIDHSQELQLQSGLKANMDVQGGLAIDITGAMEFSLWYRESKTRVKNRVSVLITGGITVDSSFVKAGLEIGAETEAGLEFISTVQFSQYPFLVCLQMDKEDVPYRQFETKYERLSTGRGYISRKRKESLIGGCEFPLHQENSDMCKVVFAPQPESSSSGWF
Sequence (P05307 21-510 partner): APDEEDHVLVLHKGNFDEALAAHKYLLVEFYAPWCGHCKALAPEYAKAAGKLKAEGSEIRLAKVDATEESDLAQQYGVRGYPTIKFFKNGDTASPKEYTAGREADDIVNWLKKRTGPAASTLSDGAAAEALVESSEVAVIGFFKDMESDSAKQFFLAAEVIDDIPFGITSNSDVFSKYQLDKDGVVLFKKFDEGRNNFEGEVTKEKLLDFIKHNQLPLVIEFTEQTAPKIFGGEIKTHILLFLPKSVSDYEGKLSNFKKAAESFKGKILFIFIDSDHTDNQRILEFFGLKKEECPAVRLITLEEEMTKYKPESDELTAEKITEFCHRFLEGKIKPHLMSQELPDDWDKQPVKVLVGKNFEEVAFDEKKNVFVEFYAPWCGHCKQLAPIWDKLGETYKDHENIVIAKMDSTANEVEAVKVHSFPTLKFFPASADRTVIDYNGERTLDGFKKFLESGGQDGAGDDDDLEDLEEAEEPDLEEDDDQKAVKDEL
Assay: Test Example 1: inhibition of interliposomal triglyceride (TG) transfer activity by MTP (also used for metabolites in Test Example 8)
Assay type: biochemical
Conditions: MTP-mediated 14C-triolein transfer between liposomes, 37° C., one hour; read-out: Test Example 1 MTP inhibition IC50
Metric Name: IC50 (nM)

Consider the reported IC50 for these molecules:
CCOC(=O)C(CCOC(=O)Cc1ccc(C)c(NC(=O)c2ccccc2-c2ccc(C(F)(F)F)cc2)c1)(C(=O)OCC)c1ccccc1; 3.9
CCCNC(=O)C(COC(=O)Cc1ccc(NC(=O)c2ccccc2-c2ccc(C(F)(F)F)cc2)c(C(=O)N(C)C)c1)(C(=O)NCCC)c1ccccc1; 1.4
CCNC(=O)C(CCOC(=O)Cc1ccc(NC(=O)c2ccccc2-c2ccc(C(F)(F)F)cc2)c(C(=O)N(C)C)c1)(C(=O)NCC)c1ccccc1; 0.94
CCNC(=O)C(CCOC(=O)Cc1ccc(NC(=O)c2ccccc2-c2ccc(C(F)(F)F)cc2)c(OC)c1)(C(=O)NCC)c1ccccc1; 5

I: CNC(=O)C(COC(=O)Cc1ccc(NC(=O)c2ccccc2-c2ccc(C(F)(F)F)cc2)cc1)(C(=O)NC)c1ccccc1
II: O=C(N[C@H]1CC[C@H](C(=O)OCCC2(C(=O)NCC(F)(F)F)c3ccccc3-c3ccccc32)CC1)c1ccccc1-c1ccc(C(F)(F)F)cc1
Q: # query: argmin of IC50 over I and II Please identify the chosen entry by its label.
Ans: I
(I: 2 nM, II: 4.97 nM)
